Answer each item with its documented inhibition of growth at 100 µg/mL.
Tested on: Staphylococcus aureus
protocol-text: Antibacterial activity against Staphylococcus aureus RN4220 assessed as growth inhibition at 100 ug/ml after 16 hrs by spectrophotometric analysis
Assay type: functional
condition-parameters: RN4220, 16 h, read-out: GI
Numbers only, in %.

Provide inhibition of growth at 100 µg/mL for all items below, preserving their order.
1. CCn1cc(C(=O)O)c(=O)c2cnc(N3CCN(C(=O)CNC(=O)OCc4ccccc4)CC3)nc21
2. CCn1cc(C(=O)O)c(=O)c2cnc(N3CCN(C(=O)[C@H](C)NC(=O)OCc4ccccc4)CC3)nc21
3. CCn1cc(C(=O)O)c(=O)c2cnc(N3CCN(C(=O)[C@@H](NC(=O)OCc4ccccc4)C(C)C)CC3)nc21
4. CCn1cc(C(=O)O)c(=O)c2cnc(N3CCN(C(=O)[C@H](CCCCNC(=O)OCc4ccccc4)NC(=O)OCc4ccccc4)CC3)nc21
5. CCn1cc(C(=O)O)c(=O)c2cnc(N3CCNCC3)nc21 [PIPEMIDIC ACID]
6. CCn1cc(C(=O)O)c(=O)c2cnc(N3CCN(C(=O)[C@H](Cc4ccccc4)NC(=O)OCc4ccccc4)CC3)nc21

52.2
55.4
60
28.2
44.4
60.1

---

System: Bacillus subtilis
protocol-text: Antibacterial activity against Bacillus subtilis 168 assessed as growth inhibition at 10 ug/ml after 16 hrs by spectrophotometric analysis
Assay type: functional
condition-parameters: subsp. subtilis str. 168, 16 h, read-out: GI
measured-parameter: inhibition of growth at 10 µg/mL (%)
Numbers only, in %.

Completed entries (count: 6):
>  <molecule>
CCn1cc(C(=O)O)c(=O)c2cnc(N3CCNCC3)nc21

>  <inhibition of growth at 10 µg/mL / %>
18.2

$$$$
>  <molecule>
CCn1cc(C(=O)O)c(=O)c2cnc(N3CCN(C(=O)CNC(=O)OCc4ccccc4)CC3)nc21

>  <inhibition of growth at 10 µg/mL / %>
88.2

$$$$
>  <molecule>
CCn1cc(C(=O)O)c(=O)c2cnc(N3CCN(C(=O)[C@H](CCCCNC(=O)OCc4ccccc4)NC(=O)OCc4ccccc4)CC3)nc21

>  <inhibition of growth at 10 µg/mL / %>
-7.86

$$$$
>  <molecule>
CCn1cc(C(=O)O)c(=O)c2cc(F)c(N3CCN(C(=O)C(C)NC(=O)OCc4ccccc4)CC3)cc21 (stereo not drawn)

>  <inhibition of growth at 10 µg/mL / %>
91.4

$$$$
>  <molecule>
CCn1cc(C(=O)O)c(=O)c2cnc(N3CCN(C(=O)[C@@H](NC(=O)OCc4ccccc4)C(C)C)CC3)nc21

>  <inhibition of growth at 10 µg/mL / %>
4.69

$$$$
>  <molecule>
CCn1cc(C(=O)O)c(=O)c2cc(F)c(N3CCN(C(=O)[C@H](Cc4ccccc4)NC(=O)OCc4ccccc4)CC3)cc21

>  <inhibition of growth at 10 µg/mL / %>
61.1

$$$$

Provide each entry's inhibition of growth at 10 µg/mL from the list below.
1. CCn1cc(C(=O)O)c(=O)c2cc(F)c(N3CCN(C(=O)CNC(=O)OCc4ccccc4)CC3)cc21
2. CCn1cc(C(=O)O)c(=O)c2cc(F)c(N3CCN(C(=O)[C@H](C)NC(=O)OCc4ccccc4)CC3)cc21

1: 90.2; 2: 91.4

---

System: Escherichia coli
protocol-text: Antibacterial activity against Escherichia coli DH5alpha assessed as growth inhibition at 5 ug/ml after 16 hrs by spectrophotometric method
Format: functional
condition-parameters: DH5[alpha], read-out: GI
measured-parameter: inhibition of growth at 5 µg/mL
Give the figure together with its unit, number first.

Some solved entries appear below for comparison.
>  <chemical-smiles>
CCn1cc(C(=O)O)c(=O)c2cnc(N3CCN(C(=O)[C@H](C)NC(=O)OCc4ccccc4)CC3)nc21

>  <experimental-result>
-12.1%

$$$$
>  <chemical-smiles>
CCn1cc(C(=O)O)c(=O)c2cnc(N3CCN(C(=O)CNC(=O)OCc4ccccc4)CC3)nc21

>  <experimental-result>
-11.1%

$$$$

# batch size: 4; output inhibition of growth at 5 µg/mL per entry
1. CCn1cc(C(=O)O)c(=O)c2cnc(N3CCNCC3)nc21
2. CCn1cc(C(=O)O)c(=O)c2cnc(N3CCN(C(=O)[C@H](CCCCNC(=O)OCc4ccccc4)NC(=O)OCc4ccccc4)CC3)nc21
3. CCn1cc(C(=O)O)c(=O)c2cnc(N3CCN(C(=O)[C@H](Cc4ccccc4)NC(=O)OCc4ccccc4)CC3)nc21
4. CCn1cc(C(=O)O)c(=O)c2cnc(N3CCN(C(=O)[C@@H](NC(=O)OCc4ccccc4)C(C)C)CC3)nc21

1. -9.68%
2. -9.63%
3. -6.38%
4. -6.67%

---

Tested on: Staphylococcus aureus
protocol-text: Antibacterial activity against Staphylococcus aureus RN4220 assessed as growth inhibition at 200 ug/ml after 16 hrs by spectrophotometric analysis
Format: functional
condition-parameters: RN4220, 16 h, read-out: GI
Exercise: for every item that follows, state its recorded inhibition of growth at 200 µg/mL.
Numbers only, in %.

Below: 5 compounds and their reported inhibition of growth at 200 µg/mL.
>  <compound>
CCn1cc(C(=O)O)c(=O)c2cnc(N3CCNCC3)nc21 [PIPEMIDIC ACID]

>  <inhibition of growth at 200 µg/mL [%]>
61.8

$$$$
>  <compound>
CCn1cc(C(=O)O)c(=O)c2cnc(N3CCN(C(=O)CNC(=O)OCc4ccccc4)CC3)nc21

>  <inhibition of growth at 200 µg/mL [%]>
57.4

$$$$
>  <compound>
CCn1cc(C(=O)O)c(=O)c2cnc(N3CCN(C(=O)[C@H](CCCCNC(=O)OCc4ccccc4)NC(=O)OCc4ccccc4)CC3)nc21

>  <inhibition of growth at 200 µg/mL [%]>
52.4

$$$$
>  <compound>
CCn1cc(C(=O)O)c(=O)c2cnc(N3CCN(C(=O)[C@H](C)NC(=O)OCc4ccccc4)CC3)nc21

>  <inhibition of growth at 200 µg/mL [%]>
63

$$$$
>  <compound>
CCn1cc(C(=O)O)c(=O)c2cnc(N3CCN(C(=O)[C@@H](NC(=O)OCc4ccccc4)C(C)C)CC3)nc21

>  <inhibition of growth at 200 µg/mL [%]>
70.6

$$$$

Note: attention shifts to another entry.
Using the record for CCn1cc(C(=O)O)c(=O)c2cnc(N3CCN(C(=O)[C@H](Cc4ccccc4)NC(=O)OCc4ccccc4)CC3)nc21 , report its inhibition of growth at 200 µg/mL. 72.9

---

Tested on: Bacillus subtilis
protocol-text: Antibacterial activity against Bacillus subtilis 168 assessed as growth inhibition at 0.1 ug/ml after 16 hrs by spectrophotometric analysis
Assay type: functional
condition-parameters: subsp. subtilis str. 168, 16 h, read-out: GI
measured-parameter: inhibition of growth at 0.1 µg/mL
Kindly format the answer as number then unit.

>  <chemical-smiles>
O=C(O)c1cn(C2CC2)c2cc(N3CCNCC3)c(F)cc2c1=O

>  <experimental-system>
Bacillus subtilis

>  <inhibition of growth at 0.1 µg/mL>
30.4%

$$$$
>  <chemical-smiles>
O=C(NCC(=O)N1CCN(c2cc3c(cc2F)c(=O)c(C(=O)O)cn3C2CC2)CC1)OCc1ccccc1

>  <experimental-system>
Bacillus subtilis

>  <inhibition of growth at 0.1 µg/mL>
18.5%

$$$$
>  <chemical-smiles>
C[C@H](NC(=O)OCc1ccccc1)C(=O)N1CCN(c2cc3c(cc2F)c(=O)c(C(=O)O)cn3C2CC2)CC1

>  <experimental-system>
Bacillus subtilis

>  <inhibition of growth at 0.1 µg/mL>
12.6%

$$$$

Quick check: inhibition of growth at 0.1 µg/mL of O=C(NCCCC[C@H](NC(=O)OCc1ccccc1)C(=O)N1CCN(c2cc3c(cc2F)c(=O)c(C(=O)O)cn3C2CC2)CC1)OCc1ccccc1 ? 9.59%

---

Test system: Staphylococcus aureus
protocol-text: Antibacterial activity against Staphylococcus aureus RN4220 assessed as growth inhibition at 60 ug/ml after 16 hrs by spectrophotometric analysis
Format: functional
condition-parameters: RN4220, 16 h, read-out: GI
Give measured inhibition of growth at 60 µg/mL for each item. Keep answers brief.
Answers are plain numbers, in %.

Before answering, review these 5 worked examples.
>  <compound>
CCn1cc(C(=O)O)c(=O)c2cc(F)c(N3CCN(C(=O)CNC(=O)OCc4ccccc4)CC3)cc21

>  <experimental-system>
Staphylococcus aureus

>  <unit-spec>
%

>  <inhibition of growth at 60 µg/mL>
88.5

$$$$
>  <compound>
CCn1cc(C(=O)O)c(=O)c2cc(F)c(N3CCN(C(=O)[C@H](C)NC(=O)OCc4ccccc4)CC3)cc21

>  <experimental-system>
Staphylococcus aureus

>  <unit-spec>
%

>  <inhibition of growth at 60 µg/mL>
91

$$$$
>  <compound>
CCn1cc(C(=O)O)c(=O)c2cc(F)c(N3CCN(C(=O)C(C)NC(=O)OCc4ccccc4)CC3)cc21 (centres undefined)

>  <experimental-system>
Staphylococcus aureus

>  <unit-spec>
%

>  <inhibition of growth at 60 µg/mL>
86.1

$$$$
>  <compound>
C[C@H](NC(=O)OCc1ccccc1)C(=O)Nc1ccc(S(=O)(=O)Nc2ncccn2)cc1

>  <experimental-system>
Staphylococcus aureus

>  <unit-spec>
%

>  <inhibition of growth at 60 µg/mL>
-9.96

$$$$
>  <compound>
CCn1cc(C(=O)O)c(=O)c2cc(F)c(N3CCN(C(=O)[C@H](Cc4ccccc4)NC(=O)OCc4ccccc4)CC3)cc21

>  <experimental-system>
Staphylococcus aureus

>  <unit-spec>
%

>  <inhibition of growth at 60 µg/mL>
92.7

$$$$

// each listed compound needs a value for inhibition of growth at 60 µg/mL
1. O=C(C[C@H](NC(=O)OCc1ccccc1)C(=O)Nc1ccc(S(=O)(=O)Nc2ncccn2)cc1)OCc1ccccc1
2. O=C(N[C@@H](Cc1ccccc1)C(=O)Nc1ccc(S(=O)(=O)Nc2ncccn2)cc1)OCc1ccccc1

[-17.6, -8.23]

Quick batch: inhibition of growth at 60 µg/mL for everything below.
1. Nc1ccc(S(=O)(=O)Nc2ncccn2)cc1 [SULFADIAZINE]
2. CCn1cc(C(=O)O)c(=O)c2cc(F)c(N3CCNCC3)cc21 [NORFLOXACIN]

1. -6.47
2. 81

Values were extracted from ChEMBL document CHEMBL3232791.
